Taken from patent US20260035359A1.

# Tested on: Amaranthus retoflexus (AMARE)
# Measurement Protocol: Pre-emergence herbicidal glasshouse test
# Assay type: in vivo
# Test Conditions: 250 g/ha, sprayed after one day cultivation, evaluated after 13 days
Property: percentage damage caused to the plant, AMARE

QUERY: Supply measured percentage damage caused to the plant, AMARE of CCCCc1nc(C=NOC)cn1Cc1ncc(Cl)cn1 (single isomer, unassigned) in your reply.
RESULT: 1 (1=0-20%)

QUERY: Supply measured percentage damage caused to the plant, AMARE of CCOCCc1nc(C(F)(F)F)cn1Cc1ncc(Cl)cn1 in your reply.
RESULT: 5 (5=81-100%)

====

The reader will find reported percentage damage caused to the plant, AMARE values listed item by item below.
# Tested on: Amaranthus retoflexus (AMARE)
# Measurement Protocol: Pre-emergence herbicidal glasshouse test
# Assay type: in vivo
# Test Conditions: 250 g/ha, sprayed after one day cultivation, evaluated after 13 days

1. C#Cc1nc(C(F)(F)F)cn1Cc1ncc(Cl)cn1
2 (2=21-40%)

QUERY: Supply measured percentage damage caused to the plant, AMARE of COCc1nc(C(F)(F)F)cn1Cc1ncc(Cl)cn1 in your reply.
RESULT: 2 (2=21-40%)

QUERY: Supply measured percentage damage caused to the plant, AMARE of O=CCCc1nc(C(F)(F)F)cn1Cc1ncc(Cl)cn1 in your reply.
RESULT: 5 (5=81-100%)

QUERY: Supply measured percentage damage caused to the plant, AMARE of FC(F)(F)CCCc1nc(Cl)cn1Cc1ncc(Cl)cn1 in your reply.
RESULT: 1 (1=0-20%)

QUERY: Supply measured percentage damage caused to the plant, AMARE of FC(F)COCc1nc(C(F)(F)F)cn1Cc1ncc(Cl)cn1 in your reply.
RESULT: 3 (3=41-60%)

====

# System: Amaranthus retoflexus (AMARE)
# Measurement Protocol: Post-emergence herbicidal glasshouse test
# Assay type: in vivo
# Test Conditions: 250 g/ha, sprayed after 8 days cultivation, evaluated after 13 days
Property: percentage damage caused to the plant, AMARE

For orientation, consider the following solved cases.
1. CCCCc1nc(C(F)(F)F)cn1Cc1ccc(Cl)cn1 [Compound 1.055]
1 (1=0-20%)
2. FC(F)(F)c1cn(Cc2ncc(Cl)cn2)c(CC2CCOC2)n1 (stereo not drawn)
4 (4=61-80%)
3. CC(O)CCc1nc(C(F)(F)F)cn1Cc1ncc(Cl)cn1 (stereo not drawn)
2 (2=21-40%)
4. FC(F)COCc1nc(C(F)(F)F)cn1Cc1ncc(Cl)cn1
3 (3=41-60%)
5. N#CC1(c2nc(C(F)(F)F)cn2Cc2ncc(Cl)cn2)CC1
2 (2=21-40%)
6. CCCCCc1nc(C(F)(F)F)cn1Cc1ncc(C#N)cn1
2 (2=21-40%)
7. CC(C)(C#N)Cc1nc(C(F)(F)F)cn1Cc1ncc(Cl)cn1
4 (4=61-80%)
8. CCCCCc1nc(C(F)(F)F)cn1Cc1ncc(Cl)cn1
2 (2=21-40%)
9. FC(F)(F)CCCc1nc(Cl)cn1Cc1ncc(Cl)cn1
2 (2=21-40%)
10. CCCCc1nc(C(F)(F)F)cn1Cc1ncc(F)cn1
3 (3=41-60%)

QUERY: Using Amaranthus retoflexus (AMARE) as the test system, report measured percentage damage caused to the plant, AMARE of CC(C)(O)CCc1nc(C(F)(F)F)cn1Cc1ncc(Cl)cn1 .
RESULT: 2 (2=21-40%)

QUERY: Using Amaranthus retoflexus (AMARE) as the test system, report measured percentage damage caused to the plant, AMARE of CCCCc1nc(C(F)(F)F)cn1Cc1ccc(Cl)cn1 [Compound 1.081] .
RESULT: 3 (3=41-60%)

QUERY: Using Amaranthus retoflexus (AMARE) as the test system, report measured percentage damage caused to the plant, AMARE of CC(C)Cc1nc(C(F)(F)F)cn1Cc1ncc(Cl)cn1 .
RESULT: 3 (3=41-60%)

QUERY: Using Amaranthus retoflexus (AMARE) as the test system, report measured percentage damage caused to the plant, AMARE of FC(F)c1ccn(CCc2nc(C(F)(F)F)cn2Cc2ncc(Cl)cn2)n1 .
RESULT: 5 (5=81-100%)

QUERY: Using Amaranthus retoflexus (AMARE) as the test system, report measured percentage damage caused to the plant, AMARE of COCc1nc(C(F)(F)F)cn1Cc1ncc(Cl)cn1 .
RESULT: 1 (1=0-20%)
